// data source = patent US20260250381A1

# study.target: T1, human TREM2 (human) (UniProt Q9NZC2)
# T1 sequence (looked up): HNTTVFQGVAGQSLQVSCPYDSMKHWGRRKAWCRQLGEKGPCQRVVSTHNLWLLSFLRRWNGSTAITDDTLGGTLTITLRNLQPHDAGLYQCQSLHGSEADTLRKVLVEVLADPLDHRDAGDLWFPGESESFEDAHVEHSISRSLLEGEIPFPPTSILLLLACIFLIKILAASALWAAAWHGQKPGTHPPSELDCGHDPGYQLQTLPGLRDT
# measurement.protocol: 1st screen, 10 nM Ab
Quick list: Binding Signal (fold over 6E7 parental antibody) per entry.
# value in fold; strip the unit string

6E7 variant V1 (antibody, V domains shown) VH: EVQLVQSGAEVKKPGESLKISCKGSGYSFTSSWIAWVRQMPGKGLEWMGIIYPGDSDTRYSPSFQGQVTISADKSISTAYLQWSSLKASDTAMYFCARSRTFYYDSSDYFDYWGQGTLVTVSS VL: DIQMTQSPSSVSASVGDRVTITCRASQGISSWLAWYQQKPGKAPKLLIYAASSLTNGVPSRFSGSGSGTDFTLTISSLQPEDFATYFCQQADSYPRTFGQGTKLEIK :: 1.68
6E7 variant V2 (antibody, V domains shown) VH: EVQLVQSGAEVKKPGESLKISCKGSGSSFTSYWIAWVRQMPGKGLEWMGIIYPGDGDTRYSPSFQGQVTISADKSISTAYLQWSSLKASDTAMYFCARSRTFYYDSSDYFDYWGQGTLVTVSS VL: DIQMTQSPSSVSASVGDRVTITCRASQGISSWLAWYQQKPGKAPKLLIYAASSRQNGVPSRFSGSGSGTDFTLTISSLQPEDFATYFCQQADRFPRTFGQGTKLEIK :: 2.55

stdin: Name the recorded Binding Signal (fold over 6E7 parental antibody) of the item 6E7 variant V73 (antibody, V domains shown) VH: EVQLVQSGAEVKKPGESLKISCKGSGYSFGSYWIAWVRQMPGKGLEWMGIIYPGDSDTRYSPGFQGQVTISADKSISTAYLQWSSLKASDTAMYFCARGRTFYYDSSDYFDYWGQGTLVTVSS VL: DIQMTQSPSSVSASVGDRVTITCRASQGISSWLAWYQQKPGKAPKLLIYAASSRQNGVPSRFSGSGSGTDFTLTISSLQPEDFATYFCQQADSYPRTFGQGTKLEIK in your answer.
stdout: 5.12
